Target: T1, 4H3817-bH
T1 chain: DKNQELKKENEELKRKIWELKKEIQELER
Assay: two-hybrid library CCNG1;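 note: natural log of median RNA to DNA barcode read ratio; higher means stronger binding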
Listed binders paired with reported interaction score
The response must contain the number and no unit.

Past entries and their recorded results:
1) DENQELEKKIEELKREIWELKKKNQELER [4H1359-bH]
0.0285
2) DKNQELKKEIEELERKNWELEKKIQELKR [4H3638-bH]
-0.0824
3) DENQELKKKIEELKRKIWELKKENQELER [4H1899-bH]
0.356

Enquiry: Give the value of interaction score reported for the following: DENQELKKEIEELEREIWELEKKNQELKR [4H1544-bH]
Return: 0.913

Enquiry: Give the value of interaction score reported for the following: DENQELKKEIEELKRENWELKKKIQELER [4H1629-bH]
Return: -0.618

Enquiry: Give the value of interaction score reported for the following: DKNQELEKEIEELKRKIWELEKENQELKR [4H3172-bH]
Return: -0.475

Enquiry: Give the value of interaction score reported for the following: DENQELKKENEELERKIWELKKKIQELKR [4H1710-bH]
Return: 0.823

Enquiry: Give the value of interaction score reported for the following: DENQELKKKNEELKREIWELEKEIQELER [4H1985-bH]
Return: -0.0213
